Overview of recorded apparent Kd (screen) for various binders
Biological target: T1, TNFR1 (Homo sapiens, UniProt P19438)
T1 chain: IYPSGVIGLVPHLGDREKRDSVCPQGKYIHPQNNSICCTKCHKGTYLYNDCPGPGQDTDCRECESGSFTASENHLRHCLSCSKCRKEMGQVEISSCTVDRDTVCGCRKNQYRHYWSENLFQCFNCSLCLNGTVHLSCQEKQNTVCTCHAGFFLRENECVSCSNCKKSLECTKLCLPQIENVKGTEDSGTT
Assay: yeast display SC50

binder	apparent Kd (screen) [nM]
M2G (designed binder) SGEEEVEKAAKEYEKKKKEAIEKHLEKLKAKDKEAAERFLKELEEAAKEYAKDEAKTMSEEEAKRRAKKYKEKVLLSELSEEEQKEIKEAEEKLVRTILKYVEEAAK	0.446
A20W (designed binder) SMEEEVEKAAKEYEKKKKEWIEKHLEKLKAKDKEAAERFLKELEEAAKEYAKDEAKTMSEEEAKRRAKKYKEKVLLSELSEEEQKEIKEAEEKLVRTILKYVEEAAK	2.25
S80C (designed binder) SMEEEVEKAAKEYEKKKKEAIEKHLEKLKAKDKEAAERFLKELEEAAKEYAKDEAKTMSEEEAKRRAKKYKEKVLLSELCEEEQKEIKEAEEKLVRTILKYVEEAAK	1.05
E54T (designed binder) SMEEEVEKAAKEYEKKKKEAIEKHLEKLKAKDKEAAERFLKELEEAAKEYAKDTAKTMSEEEAKRRAKKYKEKVLLSELSEEEQKEIKEAEEKLVRTILKYVEEAAK	12.5
V74C (designed binder) SMEEEVEKAAKEYEKKKKEAIEKHLEKLKAKDKEAAERFLKELEEAAKEYAKDEAKTMSEEEAKRRAKKYKEKCLLSELSEEEQKEIKEAEEKLVRTILKYVEEAAK	4.39
S80Q (designed binder) SMEEEVEKAAKEYEKKKKEAIEKHLEKLKAKDKEAAERFLKELEEAAKEYAKDEAKTMSEEEAKRRAKKYKEKVLLSELQEEEQKEIKEAEEKLVRTILKYVEEAAK	1.27
E82D (designed binder) SMEEEVEKAAKEYEKKKKEAIEKHLEKLKAKDKEAAERFLKELEEAAKEYAKDEAKTMSEEEAKRRAKKYKEKVLLSELSEDEQKEIKEAEEKLVRTILKYVEEAAK	1.05
E3D (designed binder) SMDEEVEKAAKEYEKKKKEAIEKHLEKLKAKDKEAAERFLKELEEAAKEYAKDEAKTMSEEEAKRRAKKYKEKVLLSELSEEEQKEIKEAEEKLVRTILKYVEEAAK	2.48
